Answer each item with its documented MNTC at 24 h.
assay: Cytotoxicity against human U937-derived macrophage-like cells assessed as reduction in cell viability after 24 hrs by MTT assay; format: cell-based, U-937; settings: read-out: MNCC

Reported MNTC at 24 h ( COc1ccc(Cc2ccc(OC)c(O)c2)cc1O ) = 500 µM

get_value(item= CCOC(=O)C(=C(c1ccc(OC)c(O)c1)c1ccc(OC)c(O)c1)c1ccc(OC)c(O)c1 , readout=MNTC at 24 h) returns 62.5 µM

The reported MNTC at 24 h of the compound COc1ccc(CC(=O)O)cc1O was > 1000 µM

The recorded MNTC at 24 h for entry COc1cc(CCO)ccc1O equals > 1000 µM

The compound identified as COc1cc(C(O)CO)ccc1O (stereo unspecified) registered its MNTC at 24 h at 500 µM

Form field MNTC at 24 h, entry CCOC(=O)C(c1ccccc1)C(c1ccccc1)c1ccccc1 (stereo unspecified) : 62.5 µM

For record CCOC(=O)C(=C(c1ccc(O)c(OC)c1)c1ccc(O)c(OC)c1)c1ccc(O)c(OC)c1 the listed MNTC at 24 h is 62.5 µM

The recorded MNTC at 24 h for entry COc1cc(C(CO)C(c2ccc(O)c(OC)c2)c2ccc(O)c(OC)c2)ccc1O (stereo unspecified) equals 500 µM

Looking up OCC(c1ccccc1)C(c1ccccc1)c1ccccc1 (stereo unspecified) , I found its MNTC at 24 h recorded as 31.2 µM

The recorded MNTC at 24 h for entry COc1ccc(CCO)cc1O equals > 1000 µM

Record CCOC(=O)C(=C(c1ccccc1)c1ccccc1)c1ccccc1 , field MNTC at 24 h: < 15.6 µM

Note to self: MNTC at 24 h recorded for COc1ccc(C(=O)CO)cc1O was 500 µM

Reported MNTC at 24 h of COc1ccc(C(O)CO)cc1O (stereo unspecified) : 500 µM

The recorded MNTC at 24 h for entry COc1cc(C(=O)CO)ccc1O equals 500 µM

compound COc1ccc(C(CO)C(c2ccc(OC)c(O)c2)c2ccc(OC)c(O)c2)cc1O (stereo unspecified) , MNTC at 24 h observed: 250 µM

Notebook: CCOC(=O)C(c1ccc(O)c(OC)c1)C(c1ccc(O)c(OC)c1)c1ccc(O)c(OC)c1 (stereo unspecified) , MNTC at 24 h read as 250 µM

What the record says about COc1cc(Cc2ccc(O)c(OC)c2)ccc1O : MNTC at 24 h is 500 µM

The recorded MNTC at 24 h for entry CCOC(=O)C(c1ccc(OC)c(O)c1)C(c1ccc(OC)c(O)c1)c1ccc(OC)c(O)c1 (stereo unspecified) equals 62.5 µM

Form: compound = CCOC(=O)Cc1ccc(OC)c(O)c1 ; MNTC at 24 h = > 1000 µM

The compound listed as COc1cc(CC(=O)O)ccc1O [HOMOVANILLIC ACID] shows MNTC at 24 h equal to > 1000 µM

For this compound ( CCOC(=O)Cc1ccc(O)c(OC)c1 ), measured MNTC at 24 h is > 1000 µM
